Catalogue of compounds with associated IC50
Biological target: human B1 receptor (Homo sapiens)
Assay: In vitro assay of human B1 receptor function using calcium flux (aequorin luminescence)
Conditions: CHO D-/hB1/Aequorin cells, agonist 20 nM des-Arg10-Kallidin (EC80); read-out: binding IC50's to hB1 receptor function

The examples below pair each entry with its known result.
CC(C)(C)c1ccc(S(=O)(=O)N[C@H](CC(=O)N[C@@H]2CCCc3cc(CNC4CCC4)ccc32)c2ccc(F)cc2)cc1 :: < 10 nM
O=C(CC(NS(=O)(=O)c1cccc(C(F)(F)F)c1)c1ccc(F)cc1)N[C@@H]1CCCc2cc(CN3CCCCC3)ccc21 (stereo in doubt) [ba] :: < 10 nM

query: Recorded IC50 of `CC(C)(C)NCc1ccc2c(c1)CCC[C@H]2NC(=O)C[C@@H](NS(=O)(=O)c1ccc(C(C)(C)C)cc1)c1ccc(F)cc1` , please.
result: < 10 nM

====

Target: UniProt:P46663
Test: In vitro assay of human B1 receptor function using calcium flux (aequorin luminescence)
Conditions: CHO D-/hB1/Aequorin cells, agonist 20 nM des-Arg10-Kallidin (EC80); read-out: binding IC50's to hB1 receptor function
Text: Activation of the Gq linked B1 receptor results in an increase in intracellular calcium. […] Aequorin is a 21-kDa photoprotein that forms a bioluminescent complex when linked to the chromophore cofactor coelenterazine. […]
pIC50: −log10 of the molar value.
Each entry below carries its reported pIC50.

Reference set (4 entries):
C=C(CN1CCCC1)c1ccc2c(c1)CCC[C@H]2NC(=O)C[C@@H](NS(=O)(=O)c1cccc(C(F)(F)F)c1)c1ccccc1 [Example 218q] :: > 8.00
O=C(C[C@@H](NS(=O)(=O)c1cccc(C(F)(F)F)c1)c1ccccc1)N[C@@H]1CCOc2cc(CN3CCC(F)CC3)ccc21 :: > 8.00
CN([C@H](CC(=O)N[C@@H]1CCCc2cc(CN3CCCCC3)ccc21)c1ccccc1)S(=O)(=O)c1cccc(C(F)(F)F)c1 :: > 8.00
CC(C)(C)NCc1ccc2c(c1)CCC[C@H]2NC(=O)C[C@@H](NS(=O)(=O)c1ccc(Cl)c(Cl)c1)c1ccccc1 :: > 8.00

query: # get_value(readout='pIC50', item= `O=C(C[C@@H](NS(=O)(=O)c1ccc(Cl)c(Cl)c1)c1cccc(Cl)c1)N[C@@H]1CCCc2cc(CN3CCCCC3)ccc21` )
result: > 8.00

query: Which measured pIC50 value corresponds to Cc1c(S(=O)(=O)N[C@H](CC(=O)NC2CCCc3cc(CNC(C)(C)C)ccc32)c2ccccc2)sc2ccc(Cl)cc12 (stereo partly shown) ?
result: > 8.00

query: Fill in the blank: the reported pIC50 of `O=C(C[C@@H](NS(=O)(=O)c1cccc(C(F)(F)F)c1)c1ccc(F)cc1)N[C@@H]1CCCc2cc(CNC3CCCC3)ccc21` is ____.
result: > 8.00

====

Target: human B1 receptor (Homo sapiens)
Sequence (P46663 1-353): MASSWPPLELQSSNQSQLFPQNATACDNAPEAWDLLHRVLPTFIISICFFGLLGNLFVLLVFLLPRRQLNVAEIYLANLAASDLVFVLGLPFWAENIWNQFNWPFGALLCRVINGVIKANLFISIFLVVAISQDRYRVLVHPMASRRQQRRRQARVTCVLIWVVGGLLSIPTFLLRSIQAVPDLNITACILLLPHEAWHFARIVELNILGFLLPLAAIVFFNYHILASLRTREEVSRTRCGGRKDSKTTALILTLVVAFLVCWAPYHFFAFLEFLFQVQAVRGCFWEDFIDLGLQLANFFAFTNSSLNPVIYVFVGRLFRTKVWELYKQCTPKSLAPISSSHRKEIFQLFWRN
Assay: In vitro assay of human B1 receptor function using calcium flux (aequorin luminescence)
Conditions: CHO D-/hB1/Aequorin cells, agonist 20 nM des-Arg10-Kallidin (EC80); read-out: binding IC50's to hB1 receptor function
Text: Activation of the Gq linked B1 receptor results in an increase in intracellular calcium. […] Aequorin is a 21-kDa photoprotein that forms a bioluminescent complex when linked to the chromophore cofactor coelenterazine. […]
pIC50: −log10 of the molar value.
In this section, each of the compounds is paired with its reported pIC50.

CC(C)(C)NCc1ccc2c(c1)CCC[C@H]2NC(=O)C[C@H](NS(=O)(=O)c1cccc(C(F)(F)F)c1)c1ccc(F)cc1 :: > 8.00
O=C(C[C@@H](NS(=O)(=O)c1cccc(C(F)(F)F)c1)c1ccccc1)N[C@@H]1CCCc2cc(CN3CCC(F)(F)CC3)ccc21 :: > 8.00

We next turn to a different compound, shown below.
query: Would you kindly share the measured pIC50 for C=C(CN1CC[C@H](O)C1)c1ccc2c(c1)CCC[C@H]2NC(=O)C[C@@H](NS(=O)(=O)c1cccc(C(F)(F)F)c1)c1ccccc1 [Example 218j] ?
result: > 8.00
